Provenance of the data: paper PMC6407917

Target: MAPK1 (Homo sapiens)
Sequence (P28482 whole entry): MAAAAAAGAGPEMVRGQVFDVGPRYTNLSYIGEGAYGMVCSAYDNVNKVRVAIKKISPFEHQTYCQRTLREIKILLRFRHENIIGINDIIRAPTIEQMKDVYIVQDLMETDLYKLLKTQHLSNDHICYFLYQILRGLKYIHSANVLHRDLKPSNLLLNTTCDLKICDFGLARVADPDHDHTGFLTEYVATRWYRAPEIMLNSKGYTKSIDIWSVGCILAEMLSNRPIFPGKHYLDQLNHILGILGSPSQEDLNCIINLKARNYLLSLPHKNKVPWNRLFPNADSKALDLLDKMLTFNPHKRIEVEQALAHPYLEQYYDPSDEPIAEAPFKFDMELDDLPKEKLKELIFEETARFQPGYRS
Test: biochemical
Design: species or system HEK293/K-562/placenta mixed human extract; Kinobeads chemoproteomic competition binding, quantified by TMT LC-MS/MS, dose response up to 20 uM
pIC50: −log10 of the molar value.
test-readout: pIC50

Quick one: pIC50 of `COc1nc(N[C@H]2CC[C@H](NS(=O)(=O)CC(C)C)CC2)nc2[nH]nc(N3CCOC[C@H]3C)c12` ?
≤ 4.70

====

Target: CSNK1D (Homo sapiens)
Sequence (P48730 whole entry): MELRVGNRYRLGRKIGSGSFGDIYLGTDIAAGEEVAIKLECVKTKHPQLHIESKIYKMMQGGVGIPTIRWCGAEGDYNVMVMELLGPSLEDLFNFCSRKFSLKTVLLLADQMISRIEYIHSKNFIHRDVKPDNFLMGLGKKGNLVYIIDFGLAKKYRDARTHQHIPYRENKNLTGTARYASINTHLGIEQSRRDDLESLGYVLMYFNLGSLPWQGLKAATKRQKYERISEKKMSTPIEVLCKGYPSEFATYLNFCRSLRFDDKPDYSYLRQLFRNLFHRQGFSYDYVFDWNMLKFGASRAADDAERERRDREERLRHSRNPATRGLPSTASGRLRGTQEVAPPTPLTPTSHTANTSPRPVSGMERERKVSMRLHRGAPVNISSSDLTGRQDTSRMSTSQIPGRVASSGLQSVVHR
Test: biochemical
Design: species or system HEK293/K-562/placenta mixed human extract; Kinobeads chemoproteomic competition binding, quantified by TMT LC-MS/MS, dose response up to 20 uM
test-readout: IC50

Quick one: IC50 of `COc1ccccc1-c1n[nH]c2nc(N[C@H]3CC[C@H](NS(=O)(=O)CCC(F)(F)F)CC3)nc(OC)c12` ?
≥ 20 µM

====

Molecular target: MAP4K1 (Homo sapiens, UniProt Q92918)
Sequence (Q92918 whole entry): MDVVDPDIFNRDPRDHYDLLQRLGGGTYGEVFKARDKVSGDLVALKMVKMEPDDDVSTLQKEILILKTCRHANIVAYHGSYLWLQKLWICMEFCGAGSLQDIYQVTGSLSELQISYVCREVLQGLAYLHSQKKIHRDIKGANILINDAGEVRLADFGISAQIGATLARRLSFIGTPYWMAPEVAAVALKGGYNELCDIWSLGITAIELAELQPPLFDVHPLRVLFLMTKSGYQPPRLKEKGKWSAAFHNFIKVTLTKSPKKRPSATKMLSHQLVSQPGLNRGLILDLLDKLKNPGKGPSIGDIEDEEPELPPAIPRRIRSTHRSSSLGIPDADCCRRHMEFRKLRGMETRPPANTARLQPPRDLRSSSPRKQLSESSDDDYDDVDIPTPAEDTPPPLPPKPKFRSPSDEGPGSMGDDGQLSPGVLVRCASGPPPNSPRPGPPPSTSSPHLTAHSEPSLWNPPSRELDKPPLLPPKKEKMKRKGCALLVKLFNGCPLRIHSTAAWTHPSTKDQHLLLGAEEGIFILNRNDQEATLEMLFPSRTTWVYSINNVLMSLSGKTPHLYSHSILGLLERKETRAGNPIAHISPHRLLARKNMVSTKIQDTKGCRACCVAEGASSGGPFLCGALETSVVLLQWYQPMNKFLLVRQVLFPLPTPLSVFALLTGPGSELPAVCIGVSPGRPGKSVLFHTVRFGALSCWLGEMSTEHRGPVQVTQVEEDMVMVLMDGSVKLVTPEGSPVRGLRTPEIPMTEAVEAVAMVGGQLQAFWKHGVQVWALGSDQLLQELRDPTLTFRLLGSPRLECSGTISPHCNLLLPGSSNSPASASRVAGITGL
Assay: biochemical
Design: species or system HEK293/K-562/placenta mixed human extract; Kinobeads chemoproteomic competition binding, quantified by TMT LC-MS/MS, dose response up to 20 uM
pIC50: −log10 of the molar value.
test-readout: pIC50

Quick one: pIC50 of COc1ccccc1-c1n[nH]c2nc(N[C@H]3CC[C@H](NS(=O)(=O)CCC(F)(F)F)CC3)nc(OC)c12 [compound 31] ?
≤ 4.70

====

Biological target: UniProtKB Q13131
Sequence (Q13131 whole entry): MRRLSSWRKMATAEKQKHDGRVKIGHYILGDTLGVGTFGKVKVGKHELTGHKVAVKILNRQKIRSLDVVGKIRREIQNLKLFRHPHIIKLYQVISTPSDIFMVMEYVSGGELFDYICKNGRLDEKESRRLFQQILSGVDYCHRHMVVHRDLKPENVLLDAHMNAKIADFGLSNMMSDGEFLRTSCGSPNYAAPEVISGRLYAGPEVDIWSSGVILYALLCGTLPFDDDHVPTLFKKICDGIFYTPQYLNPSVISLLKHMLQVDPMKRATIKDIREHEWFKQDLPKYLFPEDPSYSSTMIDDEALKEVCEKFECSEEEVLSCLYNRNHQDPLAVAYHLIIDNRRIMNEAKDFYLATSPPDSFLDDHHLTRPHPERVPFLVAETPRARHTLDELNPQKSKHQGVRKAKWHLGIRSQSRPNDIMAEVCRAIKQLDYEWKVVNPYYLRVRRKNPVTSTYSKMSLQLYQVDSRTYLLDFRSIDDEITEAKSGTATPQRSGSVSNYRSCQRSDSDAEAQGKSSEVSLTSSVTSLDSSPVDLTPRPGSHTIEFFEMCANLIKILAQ
Assay: biochemical
Parameters: species or system HEK293/K-562/placenta mixed human extract; Kinobeads chemoproteomic competition binding, quantified by TMT LC-MS/MS, dose response up to 20 uM
test-readout: IC50

Quick one: IC50 of COc1ccccc1-c1n[nH]c2nc(N[C@H]3CC[C@H](NS(=O)(=O)CCC(F)(F)F)CC3)nc(OC)c12 [compound 31] ?
≥ 20 µM

====

Target: UniProtKB Q8IWQ3
Sequence (Q8IWQ3 whole entry): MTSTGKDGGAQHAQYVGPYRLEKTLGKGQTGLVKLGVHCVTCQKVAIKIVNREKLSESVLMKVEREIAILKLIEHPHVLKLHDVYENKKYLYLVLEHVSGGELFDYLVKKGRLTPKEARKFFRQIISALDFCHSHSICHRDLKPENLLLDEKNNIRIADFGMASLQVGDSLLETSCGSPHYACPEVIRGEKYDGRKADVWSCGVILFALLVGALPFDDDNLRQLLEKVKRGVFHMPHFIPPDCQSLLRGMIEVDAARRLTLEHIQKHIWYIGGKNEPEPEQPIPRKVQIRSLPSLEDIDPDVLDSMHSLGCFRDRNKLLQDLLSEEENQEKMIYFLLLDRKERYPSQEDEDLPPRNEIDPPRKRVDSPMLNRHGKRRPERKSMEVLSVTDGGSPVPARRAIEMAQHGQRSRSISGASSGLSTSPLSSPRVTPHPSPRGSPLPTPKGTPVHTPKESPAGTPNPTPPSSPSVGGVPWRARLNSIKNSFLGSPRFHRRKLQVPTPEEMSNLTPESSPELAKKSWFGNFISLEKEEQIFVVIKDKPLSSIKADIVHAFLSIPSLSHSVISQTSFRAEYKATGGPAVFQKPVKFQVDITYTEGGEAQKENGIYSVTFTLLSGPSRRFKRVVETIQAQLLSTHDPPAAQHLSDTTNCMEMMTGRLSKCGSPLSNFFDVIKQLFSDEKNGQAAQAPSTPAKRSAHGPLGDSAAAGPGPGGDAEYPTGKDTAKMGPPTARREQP
Experiment: biochemical
Set-up: species or system HEK293/K-562/placenta mixed human extract; Kinobeads chemoproteomic competition binding, quantified by TMT LC-MS/MS, dose response up to 20 uM
pIC50: −log10 of the molar value.
test-readout: pIC50

Request body: readout pIC50, system UniProtKB Q8IWQ3, query `COc1nc(N[C@H]2CC[C@H](NS(=O)(=O)CC(C)C)CC2)nc2[nH]nc(N3CCOC[C@H]3C)c12` . Return the value.
≤ 4.70

====

Target: STK35 (Homo sapiens)
Sequence (Q8TDR2 whole entry): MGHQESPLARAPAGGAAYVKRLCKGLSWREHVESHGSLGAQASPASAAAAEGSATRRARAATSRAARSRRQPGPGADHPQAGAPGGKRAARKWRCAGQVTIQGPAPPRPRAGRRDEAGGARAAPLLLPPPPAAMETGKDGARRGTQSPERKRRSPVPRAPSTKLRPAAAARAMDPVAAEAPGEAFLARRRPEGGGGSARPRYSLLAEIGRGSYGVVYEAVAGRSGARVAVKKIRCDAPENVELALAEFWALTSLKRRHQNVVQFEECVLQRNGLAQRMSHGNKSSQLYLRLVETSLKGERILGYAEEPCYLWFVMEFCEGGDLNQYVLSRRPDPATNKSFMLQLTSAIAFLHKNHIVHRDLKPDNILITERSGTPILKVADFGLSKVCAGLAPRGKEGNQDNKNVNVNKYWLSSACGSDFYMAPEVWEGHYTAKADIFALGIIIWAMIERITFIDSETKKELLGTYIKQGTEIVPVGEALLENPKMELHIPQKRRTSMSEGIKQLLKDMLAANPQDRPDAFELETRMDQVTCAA
Assay: biochemical
Design: species or system HEK293/K-562/placenta mixed human extract; Kinobeads chemoproteomic competition binding, quantified by TMT LC-MS/MS, dose response up to 20 uM
test-readout: IC50

Quick one: IC50 of COc1ccccc1-c1n[nH]c2nc(N[C@H]3CC[C@H](NS(=O)(=O)CCC(F)(F)F)CC3)nc(OC)c12 [compound 31] ?
≥ 20 µM

====

Target: RPS6KA2 (Homo sapiens, UniProt Q15349)
Sequence (Q15349 whole entry): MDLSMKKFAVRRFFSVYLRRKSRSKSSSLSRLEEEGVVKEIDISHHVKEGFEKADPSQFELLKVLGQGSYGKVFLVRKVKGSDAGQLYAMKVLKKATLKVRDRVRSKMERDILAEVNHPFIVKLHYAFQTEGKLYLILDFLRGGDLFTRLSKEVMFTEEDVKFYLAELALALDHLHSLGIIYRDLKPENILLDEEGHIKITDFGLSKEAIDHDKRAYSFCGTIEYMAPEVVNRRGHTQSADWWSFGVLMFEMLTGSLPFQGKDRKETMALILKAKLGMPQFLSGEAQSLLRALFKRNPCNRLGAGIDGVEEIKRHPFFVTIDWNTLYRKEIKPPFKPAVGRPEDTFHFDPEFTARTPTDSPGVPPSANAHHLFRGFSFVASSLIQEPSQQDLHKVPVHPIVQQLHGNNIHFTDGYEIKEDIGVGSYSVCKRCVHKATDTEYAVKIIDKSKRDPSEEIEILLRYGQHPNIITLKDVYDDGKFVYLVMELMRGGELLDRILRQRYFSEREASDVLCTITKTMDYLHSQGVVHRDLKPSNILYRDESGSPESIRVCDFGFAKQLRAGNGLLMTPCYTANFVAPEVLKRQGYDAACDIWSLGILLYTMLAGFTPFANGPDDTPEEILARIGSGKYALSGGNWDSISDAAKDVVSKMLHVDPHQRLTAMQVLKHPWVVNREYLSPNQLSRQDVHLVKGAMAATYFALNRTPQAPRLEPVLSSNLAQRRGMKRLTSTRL
Assay: biochemical
Parameters: species or system HEK293/K-562/placenta mixed human extract; Kinobeads chemoproteomic competition binding, quantified by TMT LC-MS/MS, dose response up to 20 uM
test-readout: IC50

Quick one: IC50 of `COc1nc(N[C@H]2CC[C@H](NS(=O)(=O)CC(C)C)CC2)nc2[nH]nc(N3CCOC[C@H]3C)c12` ?
≥ 20 µM

====

Target: PIP4K2B (Homo sapiens)
Sequence (P78356 whole entry): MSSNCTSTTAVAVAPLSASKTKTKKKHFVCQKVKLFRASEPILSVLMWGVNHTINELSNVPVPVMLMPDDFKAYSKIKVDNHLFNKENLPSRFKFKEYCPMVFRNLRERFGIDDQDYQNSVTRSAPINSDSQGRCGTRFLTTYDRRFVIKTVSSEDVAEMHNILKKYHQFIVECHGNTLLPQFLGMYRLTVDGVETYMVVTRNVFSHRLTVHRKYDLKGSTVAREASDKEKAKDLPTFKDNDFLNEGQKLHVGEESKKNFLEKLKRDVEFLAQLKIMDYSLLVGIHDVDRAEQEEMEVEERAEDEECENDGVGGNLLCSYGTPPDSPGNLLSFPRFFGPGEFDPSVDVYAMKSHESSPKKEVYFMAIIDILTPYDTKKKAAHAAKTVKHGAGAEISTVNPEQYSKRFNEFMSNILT
Assay: biochemical
Design: species or system HEK293/K-562/placenta mixed human extract; Kinobeads chemoproteomic competition binding, quantified by TMT LC-MS/MS, dose response up to 20 uM
pIC50: −log10 of the molar value.
test-readout: pIC50

Quick one: pIC50 of COc1nc(N[C@H]2CC[C@H](NS(=O)(=O)CC(C)C)CC2)nc2[nH]nc(N3CCOC[C@H]3C)c12 [compound 39] ?
≤ 4.70
